Biological target: human vasopressin V1a receptor subtype (Homo sapiens)
Construct: host or cells: CHO cells, stably transfected (pZeoSV vector for the Thibonnier line)
Sequence (P37288 whole entry): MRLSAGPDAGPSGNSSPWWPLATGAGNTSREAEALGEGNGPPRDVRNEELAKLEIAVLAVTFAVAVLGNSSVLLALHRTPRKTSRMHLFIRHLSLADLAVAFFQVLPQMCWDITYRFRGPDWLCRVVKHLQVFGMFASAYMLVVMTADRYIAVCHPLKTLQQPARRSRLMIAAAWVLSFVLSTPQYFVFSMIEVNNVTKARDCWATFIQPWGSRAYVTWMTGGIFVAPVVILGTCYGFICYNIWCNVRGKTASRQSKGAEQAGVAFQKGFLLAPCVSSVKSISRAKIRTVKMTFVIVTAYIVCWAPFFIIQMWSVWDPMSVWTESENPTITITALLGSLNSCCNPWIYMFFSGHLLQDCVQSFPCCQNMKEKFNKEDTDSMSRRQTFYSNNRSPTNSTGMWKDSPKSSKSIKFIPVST
Test: Vasopressin binding in CHO cell membranes expressing human vasopressin V1a subtype receptors ([3H]Manning ligand radioligand binding)
Conditions: 100 nM

| compound | unit | inhibition at 0.1 µM |
| --- | --- | --- |
| COc1cc(-c2ccccc2C)c(Cl)cc1C(=O)N1Cc2ccc(C(=O)NCc3cccnc3)n2Cc2ccccc21 [Example 42] | % | -11 |
| COc1ccccc1-c1ccc(C(=O)N2Cc3ccc(C(=O)NCCc4ccccn4)n3Cc3ccccc32)cc1 [Example 52] | % | 16 |
| COc1ccccc1-c1ccc(C(=O)N2Cc3ccc(C(=O)N4CCN(c5ccncc5)CC4)n3Cc3ccccc32)cc1 [Example 116] | % | 77 |

Every entry's value here was drawn from patent US7064120B2.
